system: A549; test: Cytotoxicity against human A549 cells assessed as reduction in cell viability incubated for 72 hrs by MTT assay; assay type: functional, cell-based; details: A549, 72 h
PROPERTY_NAME: IC50

* CC[C@H]1CN2CCc3cc(OC)c(OC)cc3[C@@H]2C[C@@H]1CCO | 0.3 µM
* CC[C@H]1CN2CCc3c(cc(OC)c(OC)c3O)[C@@H]2C[C@@H]1C/C=[N+](/[O-])CC | > 10 µM
* COc1cc2c(cc1O)[C@@H]1C[C@@H]3CC=CC[C@H]3CN1CC2 | 12.5 µM

---

tested on: A549; experiment: Cytotoxicity against human A549 cells assessed as reduction in cell viability incubated for 72 hrs by MTT assay; format: functional, cell-based; details: A549, 72 h
Listing of entries alongside the reported IC50.
PROPERTY_NAME: IC50 (nM)

* CC[C@H]1CN2CCc3cc(OC)c(OC)cc3[C@@H]2C[C@@H]1C[C@H]1NCCc2cc(O)c(OC)cc21 | 3000
* CC[C@H]1CN2CCc3cc(OC)c(O)cc3[C@@H]2C[C@@H]1CCO | 200
* CC[C@H]1CN2CCc3c(cc(OC)c(OC)c3O)[C@@H]2C[C@@H]1C[C@H]1NCCc2c1[nH]c1ccccc21 | 3000
* CC[C@H]1CN2CCc3cc(OC)c(OC)cc3[C@@H]2C[C@@H]1C[C@H]1NCCc2c1[nH]c1ccc(O)cc21 | 2100
* CC[C@H]1CN2CCc3c(cc(OC)c(OC)c3O)[C@@H]2C[C@@H]1CCO | 2100
* CC[C@H]1CN2CCc3cc(OC)c(OC)cc3[C@@H]2C[C@@H]1C[C@@H]1NCCc2cc(O)c(OC)cc21 | 2700
* CO[C@@H]1C=C[C@@]23c4cc5c(cc4CN(C[C@@H]2O)[C@H]3C1)OCO5 [(+)-HAEMANTHAMINE] | 3000
